system: TAG; test: TAG lipid buildup inhibition with viability readout – cell-based, panel, Nile Red and DAPI fluorescence, H9c2, dose response (AID 651630); conditions: H9c2 cells, Nile Red TAG fluorescence, oleic acid, mean of runs;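 note: cells exposed to compound overnight before fixation and staining; hits lower the Nile Red lipid signal and are scored as TAG inhibitors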
Calls of active or inactive are those of the source.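 Rule for the calls: active = lipid-stain IC50 at or below a set limit, with nuclear-stain toxicity IC50 at least five times higher; inactive = the rest.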
Outcome codes: 1 (active), 0 (inactive)

- Compound: "CSC1=NC(C(Cl)(Cl)Cl)N=C(c2ccc(C)cc2)N1 (stereo unspecified)"
  Experimental System: "TAG"
  Qualitative Label: 0
- Compound: "COc1ccc(C2c3cc4c(cc3OC(N3CCOCC3)C2C)OCO4)c(OC)c1 (stereo unspecified)"
  Experimental System: "TAG"
  Qualitative Label: 1
- Compound: "CCOc1ccc(C(=O)NC(=S)Nc2cccc(S(=O)(=O)NC3=NCCC3)c2)cc1"
  Experimental System: "TAG"
  Qualitative Label: 0
- Compound: "Cc1ccc(Cn2cc(/C=N/NC(=O)Cc3nnc(NC(=O)c4ccc(C)cc4)s3)c3ccccc32)cc1"
  Experimental System: "TAG"
  Qualitative Label: 0
- Compound: "CN=C1c2cc3cc(OC)ccc3n2CCN1Cc1ccccc1"
  Experimental System: "TAG"
  Qualitative Label: 1
- Compound: "Cc1cc(NC(=O)CSc2nc(-c3ccco3)cc(C(F)(F)F)n2)no1"
  Experimental System: "TAG"
  Qualitative Label: 0
- Compound: "CCCOC(=O)c1ccc(NC(=O)CCOc2ccccc2)cc1"
  Experimental System: "TAG"
  Qualitative Label: 0
- Compound: "Cc1onc(-c2ccccc2)c1C(=O)Nc1cc(C(F)(F)F)ccc1N1CCOCC1"
  Experimental System: "TAG"
  Qualitative Label: 0
- Compound: "CC1(C)Cc2nc3sc4c(SCC(=O)NCc5ccco5)ncnc4c3cc2CO1"
  Experimental System: "TAG"
  Qualitative Label: 0
- Compound: "CC(=O)OC12COC1CC(O)C1(C)C(=O)C(O)C3=C(C)C(O)CC(O)(C(OC(=O)c4ccccc4)C21)C3(C)C (stereo unspecified)"
  Experimental System: "TAG"
  Qualitative Label: 1
- Compound: "CCC(C)Nc1nc(-c2cccc(OC)c2O)nc2ccccc12 (stereo unspecified)"
  Experimental System: "TAG"
  Qualitative Label: 0
- Compound: "CCOC(=O)[C@@H]1[C@H]2COc3ccc(Br)cc3[C@@H]2N2C(=O)N(c3ccc(C(F)(F)F)cc3)C(=O)[C@@]12C"
  Experimental System: "TAG"
  Qualitative Label: 1
- Compound: "COc1ccc(NS(=O)(=O)c2cc(C)ccc2NC(=O)c2cc(C)oc2C)cc1"
  Experimental System: "TAG"
  Qualitative Label: 1
- Compound: "CN1CSC(=S)N(C)C1"
  Experimental System: "TAG"
  Qualitative Label: 0
- Compound: "COc1ccc(CC(N)c2csc(NC(=O)Nc3ccccc3C(C)C)n2)cc1 (stereo unspecified)"
  Experimental System: "TAG"
  Qualitative Label: 0
- Compound: "CC(C)Cc1nc2sc3c(NCc4ccco4)ncnc3c2c2c1COC(C)(C)C2"
  Experimental System: "TAG"
  Qualitative Label: 0
- Compound: "CCCSc1ccc2nc(NC(=O)OC)[nH]c2c1"
  Experimental System: "TAG"
  Qualitative Label: 0
- Compound: "COc1ccc(-c2cc(NC=O)c3ncc(-c4ccc(OC)c(OC)c4)n3c2)cc1"
  Experimental System: "TAG"
  Qualitative Label: 1
- Compound: "CCCCCCSc1cc(-c2nc3ccc(Cl)cn3c2NC2CCCCC2)ccc1OC"
  Experimental System: "TAG"
  Qualitative Label: 0
- Compound: "Nc1ncnc2c1ncn2C1C=C(CO)C(O)C1O (stereo unspecified)"
  Experimental System: "TAG"
  Qualitative Label: 1
- Compound: "COc1ccc(S(=O)(=O)N2N=C(C)Oc3ccccc3C2=O)cc1"
  Experimental System: "TAG"
  Qualitative Label: 0
- Compound: "O=C(CCl)Nc1cc2[nH]c(=O)[nH]c2cc1Br"
  Experimental System: "TAG"
  Qualitative Label: 1
- Compound: "Brc1ccc(-c2csc(NNC3=NCCCCC3)n2)cc1"
  Experimental System: "TAG"
  Qualitative Label: 1
- Compound: "COc1cc(-c2nnc3n2N=C(c2ccccc2)CS3)cc(OC)c1OC"
  Experimental System: "TAG"
  Qualitative Label: 1
- Compound: "Cc1cc(C)nc(NC(=NCCc2c[nH]c3ccccc23)NC(=O)Nc2ccc(Cl)c(Cl)c2)n1"
  Experimental System: "TAG"
  Qualitative Label: 1
- Compound: "O=C(/C=C/Sc1ccc(C(F)(F)F)cn1)c1ccccc1"
  Experimental System: "TAG"
  Qualitative Label: 0
- Compound: "CCOC(=O)Nc1ccc2c(c1)C(=NNC(=S)NC)c1ccccc1-2"
  Experimental System: "TAG"
  Qualitative Label: 0
- Compound: "CN(C)c1ncnc2c1ncn2C1OC(CO)C(O)C1O (stereo unspecified)"
  Experimental System: "TAG"
  Qualitative Label: 0
- Compound: "CN(C)CCNC(=O)c1cccc2ccc(-c3ccc(-c4ccccc4)cc3)nc12"
  Experimental System: "TAG"
  Qualitative Label: 1
- Compound: "COc1ccc2nc(NC(=O)c3cccc(OCc4c(C)noc4C)c3)sc2c1"
  Experimental System: "TAG"
  Qualitative Label: 0
- Compound: "O=C(NCCCCCCCN1CCCCCCC1)C(C1CCCCC1)C1CCCCC1"
  Experimental System: "TAG"
  Qualitative Label: 0

---

tested on: TAG; assay: TAG lipid buildup inhibition with viability readout – cell-based, panel, Nile Red and DAPI fluorescence, H9c2, dose response (AID 651630); conditions: H9c2 cells, Nile Red TAG fluorescence, oleic acid, mean of runs;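 note: cells exposed to compound overnight before fixation and staining; hits lower the Nile Red lipid signal and are scored as TAG inhibitors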
The source made the active and inactive calls.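 How the source made its calls: active means lipid-stain IC50 at or below a set limit, with nuclear-stain toxicity IC50 at least five times higher; inactive means the rest.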
Labels: TRUE for active, FALSE for inactive

- Compound: "CC(C)CN(C#N)c1nc(N2CCOCC2)nc(N2CCOCC2)n1"
  Qualitative Label: "FALSE"
- Compound: "COc1cc2nc(NCCCN3CCN(C)CC3)n3nc(-c4ccccc4)nc3c2cc1OC"
  Qualitative Label: "FALSE"
- Compound: "COc1cc(C#Cc2c(-c3cncn3C)n(C)c3ccc(-c4cnc(N5CCOCC5)nc4)cc23)cc(OC)c1"
  Qualitative Label: "TRUE"
- Compound: "C=CCNc1nc(Nc2ccc(OC)c(OC)c2)c2sc(-c3ccccc3)cc2n1"
  Qualitative Label: "TRUE"
- Compound: "Cc1nc2c(ccc3nc(NC(=O)Cc4cccc5ccccc45)sc32)s1"
  Qualitative Label: "TRUE"
- Compound: "COc1cc(CNC(=O)Nc2nc(C(N)Cc3ccc(C(F)(F)F)cc3)cs2)cc(OC)c1OC (stereo unspecified)"
  Qualitative Label: "TRUE"
- Compound: "c1ccc(-c2nc(SCc3nc4ccccc4[nH]3)c3oc4ccccc4c3n2)cc1"
  Qualitative Label: "TRUE"
- Compound: "Fc1cccc(Nc2nc(-c3ccncc3)nc3ccccc23)c1"
  Qualitative Label: "FALSE"
- Compound: "COc1ccc(NC(=O)C2(C)Cc3c(-c4cccc(C(N)=O)c4)ccnc3O2)cn1 (stereo unspecified)"
  Qualitative Label: "FALSE"
- Compound: "COc1ccc(C(=O)Nc2ccc(Cl)cc2C(=O)NCc2ccco2)cc1"
  Qualitative Label: "FALSE"
- Compound: "COc1cccc(N=Nc2c(O)[nH]c(=S)[nH]c2=O)c1"
  Qualitative Label: "FALSE"
- Compound: "CCCCCOc1ccc(NC(=O)CSc2cccc3cccnc23)cc1"
  Qualitative Label: "FALSE"
- Compound: "CCOC(=O)c1cc(-c2ccccc2)sc1NC(=S)Nc1cccc(C)n1"
  Qualitative Label: "FALSE"
- Compound: "Cc1ccc(Cn2c(C(C)Nc3nc(-c4ccc(Cl)c([N+](=O)[O-])c4)cs3)nc3cc(C(F)(F)F)ccc32)cc1 (stereo unspecified)"
  Qualitative Label: "TRUE"
- Compound: "CC(C)C[C@H]1CNC(=S)N1CC1CCCN1C[C@H](CC(C)C)N1C[C@H](CC(C)C)N(CCc2ccccc2)C1=S (stereo partly specified)"
  Qualitative Label: "TRUE"
- Compound: "COc1cc(-c2nc3c(c(C)nn3-c3ccccc3)c3cc(OC)c(OC)cc23)ccc1O"
  Qualitative Label: "FALSE"
- Compound: "CCN(CC(=O)Nc1ccc(C(=O)Nc2ccc(OC)cc2)cc1)Cc1nc2ccccc2c(=O)[nH]1"
  Qualitative Label: "FALSE"
- Compound: "CCCN(CCC)CCNC(=O)c1cc2c(=O)n(CC)c3ccccc3c2s1"
  Qualitative Label: "FALSE"
- Compound: "COC(=O)[C@@]1(Cc2ccc(OC)cc2)[C@@H]2C(=CC(=O)[C@H]2CC(=O)C(=O)N2CCCC2)CN1C(=O)c1ccccc1"
  Qualitative Label: "FALSE"
- Compound: "CN(C)C(=S)N=c1ssc(=S)n1Cc1ccco1"
  Qualitative Label: "FALSE"
- Compound: "CNC(=O)c1ccc(-c2sc3nc(N4CCOCC4)c4c(c3c2N)CC(C)(C)OC4)o1"
  Qualitative Label: "TRUE"
